# target: KDR (Homo sapiens (Human), UniProt P35968)
# Sequence (P35968 20-1356): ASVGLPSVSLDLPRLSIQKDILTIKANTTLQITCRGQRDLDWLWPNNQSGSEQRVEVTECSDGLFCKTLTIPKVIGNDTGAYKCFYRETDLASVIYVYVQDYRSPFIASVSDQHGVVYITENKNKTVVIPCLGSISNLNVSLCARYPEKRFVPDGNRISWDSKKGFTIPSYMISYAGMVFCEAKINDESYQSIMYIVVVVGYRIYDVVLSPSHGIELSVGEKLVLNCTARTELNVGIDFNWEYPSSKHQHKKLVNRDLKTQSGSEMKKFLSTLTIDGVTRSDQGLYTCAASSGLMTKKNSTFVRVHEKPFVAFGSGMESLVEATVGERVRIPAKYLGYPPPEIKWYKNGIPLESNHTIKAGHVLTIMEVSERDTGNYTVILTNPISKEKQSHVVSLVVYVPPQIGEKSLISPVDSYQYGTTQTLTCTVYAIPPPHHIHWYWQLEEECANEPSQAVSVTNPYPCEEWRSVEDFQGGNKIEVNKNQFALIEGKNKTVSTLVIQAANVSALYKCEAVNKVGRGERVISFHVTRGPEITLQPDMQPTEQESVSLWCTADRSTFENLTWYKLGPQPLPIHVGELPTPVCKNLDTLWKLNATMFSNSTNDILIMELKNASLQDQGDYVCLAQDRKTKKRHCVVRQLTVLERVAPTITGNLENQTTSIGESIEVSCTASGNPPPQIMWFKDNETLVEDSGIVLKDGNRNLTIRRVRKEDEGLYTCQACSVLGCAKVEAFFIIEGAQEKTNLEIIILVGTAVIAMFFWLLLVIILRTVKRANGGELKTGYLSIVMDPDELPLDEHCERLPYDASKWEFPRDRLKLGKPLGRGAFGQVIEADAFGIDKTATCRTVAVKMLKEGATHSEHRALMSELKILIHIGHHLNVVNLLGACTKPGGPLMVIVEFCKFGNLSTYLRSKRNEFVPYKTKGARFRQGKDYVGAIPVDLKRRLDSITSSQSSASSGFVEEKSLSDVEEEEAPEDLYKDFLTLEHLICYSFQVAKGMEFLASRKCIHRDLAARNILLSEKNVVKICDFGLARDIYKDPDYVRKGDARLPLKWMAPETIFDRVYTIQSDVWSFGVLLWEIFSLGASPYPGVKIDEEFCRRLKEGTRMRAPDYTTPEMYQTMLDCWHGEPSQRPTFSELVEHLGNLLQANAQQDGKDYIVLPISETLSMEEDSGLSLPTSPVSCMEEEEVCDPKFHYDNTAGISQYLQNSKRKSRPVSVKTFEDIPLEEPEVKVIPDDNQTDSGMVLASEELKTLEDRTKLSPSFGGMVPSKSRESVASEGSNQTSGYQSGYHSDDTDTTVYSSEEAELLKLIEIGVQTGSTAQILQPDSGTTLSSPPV
# run.description: KDR autophosphorylation ELISA in HUVEC cells
# Assay type: cell-based
# condition.set: cellular, VEGF165 stimulated
observable: IC50

COc1cc2nccc(Oc3ccc(NC(=O)C4(C(=O)Nc5ccc(F)cc5)CC4)cc3)c2cc1-c1cccc(C#N)c1F 0.1 to 0.3 µM
CCNC(=O)c1ccc2c(Oc3ccc(NC(=O)C4(C(=O)Nc5ccc(F)cc5)CC4)cc3)ccnc2c1 0.01 to 0.1 µM
COC(=O)c1cc2c(Oc3ccc(NC(=O)C4(C(=O)Nc5ccc(F)cc5)CC4)cc3)ccnc2cc1OC ≤ 0.01 µM
CNC(=O)c1cc2c(Oc3ccc(NC(=O)C4(C(=O)Nc5ccc(F)cc5)CC4)cc3)ccnc2cc1NC 0.01 to 0.1 µM
CNC(=O)c1cc2nccc(Oc3cc(Cl)c(NC(=O)C4(C(=O)Nc5ccc(F)cc5)CC4)cc3F)c2cc1C > 0.3 µM

query: Param item = COC(=O)c1ccc2c(Oc3ccc(NC(=O)C4(C(=O)Nc5ccc(F)cc5)CC4)cc3)ccnc2c1 ; retrieve measured IC50.
result: 0.01 to 0.1 µM

query: What value of measured IC50 is listed for COc1cc2nccc(Oc3ccc(NC(=O)C4(C(=O)Nc5ccc(F)cc5)CC4)cc3)c2cc1C(=O)NC1CN(C)C1 ?
result: 0.01 to 0.1 µM

query: Quick one: IC50 for COc1cc2nccc(Oc3ccc(NC(=O)C4(C(=O)Nc5ccc(F)cc5)CC4)cc3)c2cc1C1(O)CNC1 ?
result: > 0.3 µM

query: Name the reported IC50 value associated with the molecule CO/N=C(\C)c1ccc2c(Oc3ccc(NC(=O)C4(C(=O)Nc5ccc(F)cc5)CC4)cc3)ccnc2c1
result: 0.1 to 0.3 µM

* * *

# target: Human Met (residues R974-S1390 with A1209G and V1290L) (Homo sapiens, UniProt P08581)
# run.description: Human Met kinase assay (33P radiometric, KinaseProfiler)
# condition.set: 10 μM ATP, read-out: c-Met IC50
Entries and their measured IC50 follow.

query: What value of IC50 on Human Met (residues R974-S1390 with A1209G and V1290L) (Homo sapiens, UniProt P08581) does COc1cc2nccc(Oc3ccc(NC(=O)C4(C(=O)Nc5ccc(F)cc5)CC4)cc3)c2cc1-c1ccccn1 have?
result: 0.01 to 0.1 µM

query: Form entry - test system: Human Met (residues R974-S1390 with A1209G and V1290L) (Homo sapiens, UniProt P08581); read-out: IC50; compound: COC(=O)c1cc2c(Oc3ccc(NC(=O)C4(C(=O)Nc5ccc(F)cc5)CC4)cc3)ccnc2cc1OC
result: ≤ 0.01 µM

query: Notebook: pull reported IC50 for Human Met (residues R974-S1390 with A1209G and V1290L) (Homo sapiens, UniProt P08581), entry COc1cc2nccc(Oc3ccc(NC(=O)C4(C(=O)Nc5ccc(F)cc5)CC4)cc3)c2cc1-c1ccc[nH]1
result: ≤ 0.01 µM

query: Write down the reported IC50 of COCCOc1cc2nccc(Oc3ccc(NC(=O)C4(C(=O)Nc5ccc(F)cc5)CC4)cc3)c2cc1C(N)=O , test system: Human Met (residues R974-S1390 with A1209G and V1290L) (Homo sapiens, UniProt P08581).
result: ≤ 0.01 µM
